Taken from patent US5708063A.

Assign Initial color density to each entry below.
- assayExplanation: Durability of poly(allyl diglycol carbonate) lens impregnated with the compound in silicone oil, as in Example 9 (Example 10)
- Type: physicochemical
- Set-up: unit not given here
- particulars: silicone oil impregnation, 1.0×10^-4 mole/g
// return just the number, without any unit appended

Task: GET /values?readout=Initial color density&item= O=C1OC(=O)C2C1=C(C1CC1)c1c(sc3c1CCCC3)C21C2CCCC1CCC2 (stereo not shown) [(54)]
Output: 0.99

Task: GET /values?readout=Initial color density&item= CCOc1cc2c(s1)C1(C3CCCC1CCC3)C1C(=O)OC(=O)C1=C2C1CC1 (stereo not shown) [(55)]
Output: 1.13

Task: GET /values?readout=Initial color density&item= Cc1cc2c(s1)C1(C3CCC1CC3)C1C(=O)N(C[N+](=O)[O-])C(=O)C1=C2C1CC1 (stereo not shown) [(8)]
Output: 0.63

Task: GET /values?readout=Initial color density&item= CC1CC1C1=C2C(=O)N(CCCCCc3cccc4ccccc34)C(=O)C2C2(c3sc4c(c31)CCCC4)C1CC3CC(C1)CC2C3 (stereo not shown) [(48)]
Output: 0.67

Task: GET /values?readout=Initial color density&item= CCC(C#N)N1C(=O)C2=C(C3CC3[N+](=O)[O-])c3c(sc4c3CCCC4)C3(C4CCCC3(C)CCC4)C2C1=O (stereo not shown) [(25)]
Output: 0.65

Task: GET /values?readout=Initial color density&item= O=C1C2=C(C3CC3)c3sc4c(c3C3(C5CCCC3CCC5)C2C(=O)N1CCc1cccc2ccccc12)CCCC4 (stereo not shown) [(33)]
Output: 0.49

Task: GET /values?readout=Initial color density&item= COC(=O)CN1C(=O)C2=C(C3CC3)c3ccsc3C3(C4CCC3CC4)C2C1=O (stereo not shown) [(1)]
Output: 0.78

Task: GET /values?readout=Initial color density&item= N#CCN1C(=O)C2=C(C3CC3)c3ccsc3C3(C4CCC3CC4)C2C1=O (stereo not shown) [(2)]
Output: 0.71

Task: GET /values?readout=Initial color density&item= Cc1cc2c(n1C)C1(C3CCCC1CCC3)C1C(=O)OC(=O)C1=C2C1CC1 (stereo not shown) [(53)]
Output: 1.08

Task: GET /values?readout=Initial color density&item= CCOC(=O)OCN1C(=O)C2=C(C3C(c4ccccc4)C3c3ccccc3)c3cc(-c4ccc(OC)cc4)sc3C3(C4CCCC3CCC4)C2C1=O (stereo not shown) [(31)]
Output: 0.69

Task: GET /values?readout=Initial color density&item= CCOC1CC1C1=C2C(=O)N(C(C#N)CC)C(=O)C2C2(c3sc(OC)c(C)c31)C1CC3CC(C1)CC2C3 (stereo not shown) [(36)]
Output: 0.77

Task: GET /values?readout=Initial color density&item= CC(=O)OCN1C(=O)C2=C(C3CC3)c3sc(Br)cc3C3(C4CC5CC(C4)CC3C5)C2C1=O (stereo not shown) [(42)]
Output: 0.51

Task: GET /values?readout=Initial color density&item= CCCC1CC1C1=C2C(=O)N(C(C)C(C)=O)C(=O)C2C2(c3oc(OC)cc31)C1CCCC2CCC1 (stereo not shown) [(30)]
Output: 0.68

Task: GET /values?readout=Initial color density&item= Cc1cc2c(n1C)C1(C3CC4CC(F)(C3)CC1(F)C4)C1C(=O)N(C3CCC([N+](=O)[O-])CC3)C(=O)C1=C2C1CC1 (stereo not shown) [(40)]
Output: 0.70

Task: GET /values?readout=Initial color density&item= N#CCN1C(=O)C2=C(C3CC3Oc3ccccc3)c3ccoc3C3(C4CCC3CC4)C2C1=O (stereo not shown) [(22)]
Output: 0.70

Task: GET /values?readout=Initial color density&item= COc1cc2c(c(OC)c1OC)C1(C3CCC1CC3)C1C(=O)OC(=O)C1=C2C1CC1 (stereo not shown) [(51)]
Output: 0.82

###

Assign T1/2 to each entry below.
- assayExplanation: Photochromic PMMA cast film: initial coloration density, maximum absorption wavelength and fatigue life in xenon fadeometer (Example 9)
- Assay type: physicochemical
- particulars: time for color density to fall to half of initial value; PMMA cast film 0.1 mm, xenon fadeometer, no stabilizer
Give the value, in units of h, as a plain number.

Task: GET /values?readout=T1/2&item= COC12CCC(CC1)C21c2oc3ccccc3c2C(C2CC2(Br)Br)=C2C(=O)N(CC(=O)OC(C)(C)CCC#N)C(=O)C21 (stereo not shown) [(13)]
Output: 47

Task: GET /values?readout=T1/2&item= N#CCN1C(=O)C2=C(C3CC3)c3ccsc3C3(C4CCC3CC4)C2C1=O (stereo not shown) [(2)]
Output: 89

Task: GET /values?readout=T1/2&item= O=C(CCCCN1C(=O)C2=C(C3CC3)c3ccsc3C3(C4CC5CC(C4)CC3C5)C2C1=O)OCCc1ccc2ccccc2c1 (stereo not shown) [(6)]
Output: 57

Task: GET /values?readout=T1/2&item= COc1cc(OC)c2c(c1)C(C1C(C)(C)C1(C)C)=C1C(=O)N(Cc3ccc4ccccc4c3)C(=O)C1C21C2CCC1CC2 (stereo not shown) [(18)]
Output: 61

Task: GET /values?readout=T1/2&item= CCOC(=O)OCN1C(=O)C2=C(C3C(c4ccccc4)C3c3ccccc3)c3cc(-c4ccc(OC)cc4)sc3C3(C4CCCC3CCC4)C2C1=O (stereo not shown) [(31)]
Output: 81

Task: GET /values?readout=T1/2&item= Cn1c2c(c3ccccc31)C1(C3CC4CC(C3)CC1C4)C1C(=O)N(CC(C)(C)CCOC(=O)CBr)C(=O)C1=C2C1CC1CCCc1ccccc1 (stereo not shown) [(38)]
Output: 68

Task: GET /values?readout=T1/2&item= O=C1C2=C(C3CC3)c3cc(Br)sc3C3(C4CCCC3CCC4)C2C(=O)N1CCc1ccc2ccccc2c1 (stereo not shown) [(3)]
Output: 45

###

- assayExplanation: Photochromic PMMA cast film: initial coloration density, maximum absorption wavelength and fatigue life in xenon fadeometer (Example 9);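 for Initial color density: initial color density is an absorbance value so the % unit is wrong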
- Type: physicochemical
- particulars: PMMA cast film 0.1 mm, xenon light, no stabilizer
Returns criterion met if the recorded Initial color density is greater than or equal to 0.7%, and criterion not met otherwise.

Task: Threshold query (Initial color density >= 0.7%) on COC1CC1C1=C2C(=O)N(Cc3ccc4ccccc4c3)C(=O)C2C2(c3c1sc1ccccc31)C1CCC2CC1 (stereo not shown)
Output: criterion not met

Task: Threshold query (Initial color density >= 0.7%) on CCOC(=O)OCN1C(=O)C2=C(C3CC3c3ccccc3)c3cc(OCC)sc3C3(C4CC5CC(C)(C4)CC3(C)C5)C2C1=O (stereo not shown)
Output: criterion met

Task: Threshold query (Initial color density >= 0.7%) on O=C1OC(=O)C2C1=C(C1CC1)c1c(sc3ccccc13)C21C2CCC1CC2 (stereo not shown)
Output: criterion met

Task: Threshold query (Initial color density >= 0.7%) on CCC(C(=O)C[N+](=O)[O-])N1C(=O)C2=C(C3CC3)c3cc(OC)cc(OC)c3C3(C4CC5CC(C4)CC3C5)C2C1=O (stereo not shown)
Output: criterion not met

Task: Threshold query (Initial color density >= 0.7%) on CCn1c2c(c3ccccc31)C(C1CC1)=C1C(=O)OC(=O)C1C21C2CC3CC1CC(C)(C3)C2 (stereo not shown)
Output: criterion met

###

- assayExplanation: Durability of poly(allyl diglycol carbonate) lens impregnated with the compound in silicone oil, as in Example 9 (Example 10)
- Format: physicochemical
- particulars: silicone oil impregnation
Assign λmax to each entry below.
Give the value, in units of nm, as a plain number.

Task: GET /values?readout=λmax&item= CCOC(=O)OCN1C(=O)C2=C(C3C(c4ccccc4)C3c3ccccc3)c3cc(-c4ccc(OC)cc4)sc3C3(C4CCCC3CCC4)C2C1=O (stereo not shown)
Output: 616

Task: GET /values?readout=λmax&item= COc1cc2c(c(OC)c1OC)C1(C3CCC1CC3)C1C(=O)OC(=O)C1=C2C1CC1 (stereo not shown)
Output: 562

Task: GET /values?readout=λmax&item= COC(=O)CN1C(=O)C2=C(C3CC3)c3ccsc3C3(C4CCC3CC4)C2C1=O (stereo not shown)
Output: 554

Task: GET /values?readout=λmax&item= Cc1cc2c(s1)C1(C3CCC1CC3)C1C(=O)N(C[N+](=O)[O-])C(=O)C1=C2C1CC1 (stereo not shown)
Output: 578

Task: GET /values?readout=λmax&item= CCCC1CC1C1=C2C(=O)N(C(C)C(C)=O)C(=O)C2C2(c3oc(OC)cc31)C1CCCC2CCC1 (stereo not shown)
Output: 571

Task: GET /values?readout=λmax&item= O=C1OC(=O)C2C1=C(C1CC1)c1c(sc3c1CCCC3)C21C2CCCC1CCC2 (stereo not shown)
Output: 573

Task: GET /values?readout=λmax&item= N#CCN1C(=O)C2=C(C3CC3Oc3ccccc3)c3ccoc3C3(C4CCC3CC4)C2C1=O (stereo not shown)
Output: 559

Task: GET /values?readout=λmax&item= O=C1C2=C(C3CC3)c3cc(Br)sc3C3(C4CCCC3CCC4)C2C(=O)N1CCc1ccc2ccccc2c1 (stereo not shown)
Output: 550

Task: GET /values?readout=λmax&item= CC1CC1C1=C2C(=O)N(CCCCCc3cccc4ccccc34)C(=O)C2C2(c3sc4c(c31)CCCC4)C1CC3CC(C1)CC2C3 (stereo not shown)
Output: 590

Task: GET /values?readout=λmax&item= CC(=O)OCN1C(=O)C2=C(C3CC3)c3sc(Br)cc3C3(C4CC5CC(C4)CC3C5)C2C1=O (stereo not shown)
Output: 553

Task: GET /values?readout=λmax&item= CCOC1CC1C1=C2C(=O)N(C(C#N)CC)C(=O)C2C2(c3sc(OC)c(C)c31)C1CC3CC(C1)CC2C3 (stereo not shown)
Output: 582

Task: GET /values?readout=λmax&item= CCC(C#N)N1C(=O)C2=C(C3CC3[N+](=O)[O-])c3c(sc4c3CCCC4)C3(C4CCCC3(C)CCC4)C2C1=O (stereo not shown)
Output: 565

Task: GET /values?readout=λmax&item= COC(=O)C(C)N1C(=O)C2=C(C3CC3)c3cc(-c4cccc(OC)c4)sc3C3(C4CC5CC(Cl)(C4)CC3(Cl)C5)C2C1=O (stereo not shown)
Output: 580

Task: GET /values?readout=λmax&item= Cc1cc2c(n1C)C1(C3CCCC1CCC3)C1C(=O)OC(=O)C1=C2C1CC1 (stereo not shown)
Output: 530

Task: GET /values?readout=λmax&item= COC(=O)CN1C(=O)C2=C(C3CC3)c3ccoc3C3(C4CCC3CC4)C2C1=O (stereo not shown)
Output: 535

Task: GET /values?readout=λmax&item= CCOc1cc2c(s1)C1(C3CCCC1CCC3)C1C(=O)OC(=O)C1=C2C1CC1 (stereo not shown)
Output: 550
